- assayDetails: Third cross-over study: Maxiclear PE 2.5 (two tablets) vs Sudafed PE (6 adult subjects)
- Type: in vivo
- assayConditions: human, oral, 10 mg; phenylephrine in plasma, mean, untransformed data, n = 6 adult humans
Where a name gives a salt, the structure may show the parent alone.
quantity: Cmax (ng/mL)
Give the value, in units of ng/mL, as a plain number.

So for CNC[C@H](O)c1cccc(O)c1 [10 mg phenylephrine hydrochloride, phenylephrine hydrochloride] , the logged Cmax turned out to be 1.13

====

- assayDetails: First crossover study: absorption of phenylephrine, PE HCl alone vs Maxigesic PE (28 adult subjects)
- Assay type: in vivo
- assayConditions: human, 10 mg; phenylephrine in blood plasma, mean, oral tablets, n = 28 adult humans
Where a name gives a salt, the structure may show the parent alone.
quantity: Cmax (ng/mL)
Give the value, in units of ng/mL, as a plain number.

So for CNC[C@H](O)c1cccc(O)c1 [10 mg phenylephrine hydrochloride, phenylephrine hydrochloride] , the logged Cmax turned out to be 0.874
